Parameter 'readout' = log10(IC50); parameter 'system' = Acetylcholinesterase (Electrophorus electricus).
Sequence (O42275 whole entry): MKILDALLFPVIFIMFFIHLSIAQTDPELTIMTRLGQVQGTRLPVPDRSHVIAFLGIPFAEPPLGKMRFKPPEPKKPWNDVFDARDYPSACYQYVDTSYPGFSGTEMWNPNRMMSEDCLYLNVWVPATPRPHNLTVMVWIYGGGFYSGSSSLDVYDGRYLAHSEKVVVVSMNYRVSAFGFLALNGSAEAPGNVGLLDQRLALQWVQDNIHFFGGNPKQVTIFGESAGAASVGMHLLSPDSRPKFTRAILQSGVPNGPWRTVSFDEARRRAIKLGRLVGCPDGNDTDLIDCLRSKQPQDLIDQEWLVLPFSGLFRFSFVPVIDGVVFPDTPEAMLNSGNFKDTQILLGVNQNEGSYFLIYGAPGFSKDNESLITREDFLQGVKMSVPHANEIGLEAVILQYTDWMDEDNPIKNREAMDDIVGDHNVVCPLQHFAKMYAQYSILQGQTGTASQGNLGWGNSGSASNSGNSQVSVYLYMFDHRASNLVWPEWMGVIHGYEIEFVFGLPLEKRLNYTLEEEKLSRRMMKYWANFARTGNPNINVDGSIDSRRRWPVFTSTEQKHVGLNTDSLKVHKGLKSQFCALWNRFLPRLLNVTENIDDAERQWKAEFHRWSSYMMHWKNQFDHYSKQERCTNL
measured_attribute: log10(IC50) (log10 of the value in nM)

- smiles_str: "Cc1cccc(Nc2ccccc2C(=O)NCCCCCC(=O)NCCCCCCNc2c3c(nc4cc(Cl)ccc24)CCCC3)c1C"
  log10(IC50): 0.87
- smiles_str: "CCCCCCCCCNc1c2c(nc3cc(Cl)ccc13)CCCC2"
  log10(IC50): 1.23
- smiles_str: "Cc1cccc(Nc2ccccc2C(=O)NCCCCCC(=O)NCCCCCCCNc2c3c(nc4cc(Cl)ccc24)CCCC3)c1C"
  log10(IC50): 1.13
- smiles_str: "Cc1cccc(Nc2ccccc2C(=O)NCCC(=O)NCCCCNc2c3c(nc4cc(Cl)ccc24)CCCC3)c1C"
  log10(IC50): 1.52
- smiles_str: "Cc1cccc(Nc2ccccc2C(=O)NCCCCCCNc2c3c(nc4cc(Cl)ccc24)CCCC3)c1C"
  log10(IC50): 0.01
- smiles_str: "CCCCCCCCNc1c2c(nc3cc(Cl)ccc13)CCCC2"
  log10(IC50): 0.90
- smiles_str: "CCCCCNc1c2c(nc3cc(Cl)ccc13)CCCC2"
  log10(IC50): 1.64
- smiles_str: "NCCCCCCCNc1c2c(nc3cc(Cl)ccc13)CCCC2"
  log10(IC50): 1.18
- smiles_str: "Cc1cccc(Nc2ccccc2C(=O)NCCCCCCCCCCNc2c3c(nc4cc(Cl)ccc24)CCCC3)c1C"
  log10(IC50): 0.27
- smiles_str: "CCCCCCCNc1c2c(nc3cc(Cl)ccc13)CCCC2"
  log10(IC50): 0.31
- smiles_str: "CCCCCCCCCCNc1c2c(nc3cc(Cl)ccc13)CCCC2"
  log10(IC50): 2.40
- smiles_str: "Cc1cccc(Nc2ccccc2C(=O)NCCCCCCCNc2c3c(nc4cc(Cl)ccc24)CCCC3)c1C"
  log10(IC50): 1.47
- smiles_str: "Cc1cccc(Nc2ccccc2C(=O)NCCCC(=O)NCCCCCCNc2c3c(nc4cc(Cl)ccc24)CCCC3)c1C"
  log10(IC50): 1.19
- smiles_str: "Cc1cccc(Nc2ccccc2C(=O)NCCCCCCCCCNc2c3c(nc4cc(Cl)ccc24)CCCC3)c1C"
  log10(IC50): 0.83
- smiles_str: "Cc1cccc(Nc2ccccc2C(=O)NCCCCCCCCCCCCNc2c3c(nc4cc(Cl)ccc24)CCCC3)c1C"
  log10(IC50): 1.21
- smiles_str: "Cc1cccc(Nc2ccccc2C(=O)NCCC(=O)NCCCCCCNc2c3c(nc4cc(Cl)ccc24)CCCC3)c1C"
  log10(IC50): 0.47
- smiles_str: "NCCCCCCCCCNc1c2c(nc3cc(Cl)ccc13)CCCC2"
  log10(IC50): 0.09
- smiles_str: "NCCCCCNc1c2c(nc3cc(Cl)ccc13)CCCC2"
  log10(IC50): 2.97
- smiles_str: "Cc1cccc(Nc2ccccc2C(=O)NCCCC(=O)NCCCCNc2c3c(nc4cc(Cl)ccc24)CCCC3)c1C"
  log10(IC50): 1.09
- smiles_str: "OCCCCCNc1c2c(nc3cc(Cl)ccc13)CCCC2"
  log10(IC50): 3.18
